- measured_on: T1, human GIP receptor (human, UniProt P48546 22-466)
- T1 construct: whole, on cells; also called hGIPR; human glucose-dependent insulinotropic polypeptide receptor
- T1 sequence (looked up): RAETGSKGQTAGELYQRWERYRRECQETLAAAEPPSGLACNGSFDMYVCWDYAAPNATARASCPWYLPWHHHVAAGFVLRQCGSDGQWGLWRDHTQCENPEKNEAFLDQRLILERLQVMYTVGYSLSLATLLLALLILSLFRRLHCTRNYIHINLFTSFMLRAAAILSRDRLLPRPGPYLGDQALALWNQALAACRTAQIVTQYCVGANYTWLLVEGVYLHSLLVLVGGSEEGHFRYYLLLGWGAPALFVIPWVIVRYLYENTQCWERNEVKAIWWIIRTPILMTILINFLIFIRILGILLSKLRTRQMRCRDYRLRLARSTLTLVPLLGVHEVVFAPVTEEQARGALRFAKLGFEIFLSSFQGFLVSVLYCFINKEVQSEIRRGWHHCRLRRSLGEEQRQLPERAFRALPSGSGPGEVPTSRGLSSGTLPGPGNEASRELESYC
- assay_details: SPA competition vs [125I]-GIP, hGIPR membranes
- Experimental: The binding buffer contains 25 mM HEPES, pH 7.4, 2.5 mM CaCl₂, 1 mM MgCl₂, 0.1% (w/v) bacitracin, 0.003% (w/v) TWEEN®-20, and Roche Complete™ Protease Inhibitors without EDTA. […] Plates are sealed and mixed on a plate shaker (setting 6) for 1 minute and read with a PerkinElmer Trilux MicroBeta® scintillation counter after 2.5 to 12 hours of incubation/settling time at room temperature. […]
test_readout: pKi
Recall that pKi is obtained by taking minus log10 of the concentration measured in molar.

Prompt line: # get_value(readout='pKi', item= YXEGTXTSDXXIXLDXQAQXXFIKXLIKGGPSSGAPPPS (Aib2, αMeF(2F)6, 4Pal10, Aib11, αMeL13, Orn16, Aib20, Orn21, K24(Z1), αMeY25, K28(Z1), C-term NH2; Z1=AEEA2-Trx-(γ-Glu)-(10-(4-carboxyphenoxy)decanoyl)) )
Response line: 10.31

Prompt line: Also need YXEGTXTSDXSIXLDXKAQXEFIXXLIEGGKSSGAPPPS (Aib2, αMeF(2F)6, 4Pal10, αMeL13, Orn16, K17(Z1), Aib20, D-Glu24, αMeY25, K31(Z1), C-term NH2; Z1=(γ-Glu)-AEEA-CO-(CH2)12-CO2H) , thanks.
Response line: 10.12

Prompt line: Also, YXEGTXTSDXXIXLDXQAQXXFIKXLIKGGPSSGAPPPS (Aib2, αMeF(2F)6, 4Pal10, Aib11, αMeL13, Orn16, Aib20, Orn21, K24(Z1), αMeY25, K28(Z1), C-term NH2; Z1=AEEA-(γ-Glu)-AEEA-(γ-Glu)-CO-(CH2)12-CO2H) please.
Response line: 10.53
